Assay: Solubility of the compound in DMF
Type: physicochemical
MEASURE: solubility

1. Fc1ccc(Nc2nc(Nc3ccc(F)c(Cl)c3)nc(Nc3nc(-c4ccc(Cl)cc4)cs3)n2)cc1Cl = soluble
2. O=[N+]([O-])c1ccc(-c2csc(Nc3nc(Nc4ccc(F)cc4)nc(Nc4ccc(F)cc4)n3)n2)cc1 = soluble
3. O=[N+]([O-])c1ccc(Nc2nc(Cl)nc(Nc3ccc([N+](=O)[O-])cc3)n2)cc1 = Insoluble
4. Fc1ccc(Nc2nc(Cl)nc(Nc3ccc(F)cc3)n2)cc1 = Insoluble
5. Clc1nc(Nc2ccc(Br)cc2)nc(Nc2ccc(Br)cc2)n1 = Insoluble
6. Nc1nc(-c2ccc([N+](=O)[O-])cc2)cs1 = soluble
7. O=[N+]([O-])c1ccc(-c2csc(Nc3nc(Nc4ccc(Cl)cc4)nc(Nc4ccc(Cl)cc4)n3)n2)cc1 = soluble
8. Clc1ccc(Nc2nc(Cl)nc(Nc3ccc(Cl)cc3)n2)cc1 = Insoluble
9. Nc1nc(-c2ccc(Cl)cc2)cs1 = soluble
10. O=[N+]([O-])c1ccc(Nc2nc(Nc3ccc([N+](=O)[O-])cc3)nc(Nc3nc(-c4ccc([N+](=O)[O-])cc4)cs3)n2)cc1 = soluble
11. O=[N+]([O-])c1ccc(-c2csc(Nc3nc(Nc4ccc(F)c(Cl)c4)nc(Nc4ccc(F)c(Cl)c4)n3)n2)cc1 = soluble
12. O=[N+]([O-])c1ccc(-c2csc(Nc3nc(Nc4ccc(Br)cc4)nc(Nc4ccc(Br)cc4)n3)n2)cc1 = soluble

----------
Experiment: Solubility of the compound in ethanol
Type: physicochemical
MEASURE: solubility

1) O=[N+]([O-])c1ccc(-c2csc(Nc3nc(Nc4ccc(Br)cc4)nc(Nc4ccc(Br)cc4)n3)n2)cc1 = soluble
2) O=[N+]([O-])c1ccc(Nc2nc(Nc3ccc([N+](=O)[O-])cc3)nc(Nc3nc(-c4ccc([N+](=O)[O-])cc4)cs3)n2)cc1 = soluble
3) Fc1ccc(Nc2nc(Cl)nc(Nc3ccc(F)cc3)n2)cc1 = soluble
4) Nc1nc(-c2ccc([N+](=O)[O-])cc2)cs1 = soluble

----------
Experiment: Solubility of the compound in ethyl acetate
Format: physicochemical
MEASURE: solubility

1. O=[N+]([O-])c1ccc(-c2csc(Nc3nc(Nc4ccc(F)cc4)nc(Nc4ccc(F)cc4)n3)n2)cc1 = Insoluble
2. Nc1nc(-c2ccc(Cl)cc2)cs1 = soluble
3. Clc1ccc(Nc2nc(Cl)nc(Nc3ccc(Cl)cc3)n2)cc1 = Insoluble
4. O=[N+]([O-])c1ccc(-c2csc(Nc3nc(Nc4ccc(Br)cc4)nc(Nc4ccc(Br)cc4)n3)n2)cc1 = soluble
5. O=[N+]([O-])c1ccc(-c2csc(Nc3nc(Nc4ccc(Cl)cc4)nc(Nc4ccc(Cl)cc4)n3)n2)cc1 = Insoluble
6. O=[N+]([O-])c1ccc(Nc2nc(Cl)nc(Nc3ccc([N+](=O)[O-])cc3)n2)cc1 = soluble
7. Clc1nc(Nc2ccc(Br)cc2)nc(Nc2ccc(Br)cc2)n1 = soluble
8. Nc1nc(-c2ccc([N+](=O)[O-])cc2)cs1 = soluble
9. O=[N+]([O-])c1ccc(Nc2nc(Nc3ccc([N+](=O)[O-])cc3)nc(Nc3nc(-c4ccc([N+](=O)[O-])cc4)cs3)n2)cc1 = Insoluble
10. Fc1ccc(Nc2nc(Nc3ccc(F)c(Cl)c3)nc(Nc3nc(-c4ccc(Cl)cc4)cs3)n2)cc1Cl = soluble
11. O=[N+]([O-])c1ccc(-c2csc(Nc3nc(Nc4ccc(F)c(Cl)c4)nc(Nc4ccc(F)c(Cl)c4)n3)n2)cc1 = soluble
12. Fc1ccc(Nc2nc(Cl)nc(Nc3ccc(F)cc3)n2)cc1 = Insoluble

----------
Items are presented alongside their recorded MIC.
Tested on: Bacillus subtilis
Experiment: Antibacterial activity against Bacillus subtilis NCIM 2063 after 24 hr by broth dilution method
Assay type: functional
Settings: NCIM 2063, 24 h
MEASURE: MIC (µg/mL)

1. CN[C@@H]1[C@H](O[C@H]2[C@H](O[C@H]3[C@H](O)[C@@H](O)[C@H](N=C(N)N)[C@@H](O)[C@@H]3N=C(N)N)O[C@@H](C)[C@]2(O)C=O)O[C@@H](CO)[C@H](O)[C@H]1O = 6.25
2. Fc1ccc(Nc2nc(Cl)nc(Nc3ccc(F)c(Cl)c3)n2)cc1Cl = 100
3. Fc1ccc(Nc2nc(Nc3ccc(F)c(Cl)c3)nc(Nc3nc(-c4ccc(Cl)cc4)cs3)n2)cc1Cl = 50
4. O=[N+]([O-])c1ccc(Nc2nc(Cl)nc(Nc3ccc([N+](=O)[O-])cc3)n2)cc1 = 100

----------
Tested on: Klebsiella pneumoniae
Assay: Antibacterial activity against Klebsiella pneumoniae NCIM 2706 after 24 hr by broth dilution method
Type: functional
Conditions: NCIM 2706, 24 h
Please use T for MIC under 20 µg/mL and F for everything else, ties included.

1. Clc1nc(Nc2ccc(Br)cc2)nc(Nc2ccc(Br)cc2)n1 = F
2. O=[N+]([O-])c1ccc(Nc2nc(Cl)nc(Nc3ccc([N+](=O)[O-])cc3)n2)cc1 = F
3. Fc1ccc(Nc2nc(Cl)nc(Nc3ccc(F)c(Cl)c3)n2)cc1Cl = F
4. O=[N+]([O-])c1ccc(-c2csc(Nc3nc(Nc4ccc(Cl)cc4)nc(Nc4ccc(Cl)cc4)n3)n2)cc1 = T
5. O=[N+]([O-])c1ccc(-c2csc(Nc3nc(Nc4ccc(F)cc4)nc(Nc4ccc(F)cc4)n3)n2)cc1 = F
6. CN[C@@H]1[C@H](O[C@H]2[C@H](O[C@H]3[C@H](O)[C@@H](O)[C@H](N=C(N)N)[C@@H](O)[C@@H]3N=C(N)N)O[C@@H](C)[C@]2(O)C=O)O[C@@H](CO)[C@H](O)[C@H]1O = T
7. Clc1ccc(Nc2nc(Cl)nc(Nc3ccc(Cl)cc3)n2)cc1 = F
8. Fc1ccc(Nc2nc(Nc3ccc(F)c(Cl)c3)nc(Nc3nc(-c4ccc(Cl)cc4)cs3)n2)cc1Cl = T

----------
Assay: Solubility of the compound in dilute acids
Assay type: physicochemical
MEASURE: solubility

1) Clc1nc(Nc2ccc(Br)cc2)nc(Nc2ccc(Br)cc2)n1 = soluble
2) O=[N+]([O-])c1ccc(-c2csc(Nc3nc(Nc4ccc(Br)cc4)nc(Nc4ccc(Br)cc4)n3)n2)cc1 = soluble
3) Fc1ccc(Nc2nc(Nc3ccc(F)c(Cl)c3)nc(Nc3nc(-c4ccc(Cl)cc4)cs3)n2)cc1Cl = soluble
4) O=[N+]([O-])c1ccc(Nc2nc(Cl)nc(Nc3ccc([N+](=O)[O-])cc3)n2)cc1 = soluble
5) O=[N+]([O-])c1ccc(-c2csc(Nc3nc(Nc4ccc(F)cc4)nc(Nc4ccc(F)cc4)n3)n2)cc1 = soluble
6) O=[N+]([O-])c1ccc(Nc2nc(Nc3ccc([N+](=O)[O-])cc3)nc(Nc3nc(-c4ccc([N+](=O)[O-])cc4)cs3)n2)cc1 = soluble
7) Nc1nc(-c2ccc(Cl)cc2)cs1 = soluble
8) Nc1nc(-c2ccc([N+](=O)[O-])cc2)cs1 = soluble

----------
The entries below are paired with their reported MIC.
Tested on: Bacillus subtilis
Assay: Antibacterial activity against Bacillus subtilis NCIM 2063 after 24 hr by broth dilution method
Assay type: functional
Settings: NCIM 2063, 24 h
MEASURE: MIC (µg/mL)

1) O=[N+]([O-])c1ccc(-c2csc(Nc3nc(Nc4ccc(F)cc4)nc(Nc4ccc(F)cc4)n3)n2)cc1 = 50
2) O=[N+]([O-])c1ccc(-c2csc(Nc3nc(Nc4ccc(F)c(Cl)c4)nc(Nc4ccc(F)c(Cl)c4)n3)n2)cc1 = 100
3) O=[N+]([O-])c1ccc(-c2csc(Nc3nc(Nc4ccc(Cl)cc4)nc(Nc4ccc(Cl)cc4)n3)n2)cc1 = 25
4) Fc1ccc(Nc2nc(Cl)nc(Nc3ccc(F)cc3)n2)cc1 = 50

----------
Assay: Solubility of the compound in acetic acid
Assay type: physicochemical
MEASURE: solubility

1. Fc1ccc(Nc2nc(Nc3ccc(F)c(Cl)c3)nc(Nc3nc(-c4ccc(Cl)cc4)cs3)n2)cc1Cl = Insoluble
2. O=[N+]([O-])c1ccc(-c2csc(Nc3nc(Nc4ccc(Br)cc4)nc(Nc4ccc(Br)cc4)n3)n2)cc1 = soluble
3. Nc1nc(-c2ccc(Cl)cc2)cs1 = Insoluble
4. O=[N+]([O-])c1ccc(-c2csc(Nc3nc(Nc4ccc(F)c(Cl)c4)nc(Nc4ccc(F)c(Cl)c4)n3)n2)cc1 = Insoluble
5. Clc1nc(Nc2ccc(Br)cc2)nc(Nc2ccc(Br)cc2)n1 = soluble
6. Fc1ccc(Nc2nc(Cl)nc(Nc3ccc(F)cc3)n2)cc1 = soluble
7. O=[N+]([O-])c1ccc(-c2csc(Nc3nc(Nc4ccc(F)cc4)nc(Nc4ccc(F)cc4)n3)n2)cc1 = Insoluble
8. O=[N+]([O-])c1ccc(-c2csc(Nc3nc(Nc4ccc(Cl)cc4)nc(Nc4ccc(Cl)cc4)n3)n2)cc1 = Insoluble
9. O=[N+]([O-])c1ccc(Nc2nc(Nc3ccc([N+](=O)[O-])cc3)nc(Nc3nc(-c4ccc([N+](=O)[O-])cc4)cs3)n2)cc1 = Insoluble
10. O=[N+]([O-])c1ccc(Nc2nc(Cl)nc(Nc3ccc([N+](=O)[O-])cc3)n2)cc1 = soluble
11. Clc1ccc(Nc2nc(Cl)nc(Nc3ccc(Cl)cc3)n2)cc1 = soluble
12. Nc1nc(-c2ccc([N+](=O)[O-])cc2)cs1 = Insoluble
13. Fc1ccc(Nc2nc(Cl)nc(Nc3ccc(F)c(Cl)c3)n2)cc1Cl = soluble

Values compiled from ChEMBL document CHEMBL3045944.
